Biological target: T1, MBP-tagged OSGEP (human, UniProt Q9NPF4 1-335)
T1 construct: human OSGEP (gene bought from DNAsu); Cloned into a modified pMal-c2X vector; also called MBP-OSGEP; Kae1 (yeast ortholog); source: E. coli BL21-CodonPlus (DE3), purified (amylose resin, HiTrap Q anion exchange)
T1 sequence (looked up): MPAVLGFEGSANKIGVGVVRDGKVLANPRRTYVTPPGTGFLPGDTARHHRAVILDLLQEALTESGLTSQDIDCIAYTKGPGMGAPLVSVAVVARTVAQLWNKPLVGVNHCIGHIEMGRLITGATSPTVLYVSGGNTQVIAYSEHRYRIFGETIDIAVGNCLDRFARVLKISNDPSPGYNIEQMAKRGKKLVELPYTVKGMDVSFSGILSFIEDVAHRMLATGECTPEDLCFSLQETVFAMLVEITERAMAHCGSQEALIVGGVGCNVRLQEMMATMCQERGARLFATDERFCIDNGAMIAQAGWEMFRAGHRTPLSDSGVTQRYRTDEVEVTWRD
Assay: pull-down; GST-tagged PRPK proteins captured on 20 µl glutathione Sepharose 4B from BL21 lysates, then incubated with about 15 µg purified His-TPRKB or MBP-OSGEP; 20 mM Tris-HCl pH 8.0, 300 mM NaCl, 0.1% Nonidet P-40, 5% glycerol, 2 mM DTT, 0.4 mM PMSF; 2 h at 4°C; 4 washes; Western blot with anti-His or anti-MBP
Conditions: both partners purified

{"BINDER": "GST-tagged PRPK S250E (enzyme, human, UniProt Q96S44 1-253, looked up, human p53-related protein kinase (PRPK, TP53RK) with S250E; source: E. coli BL21 lysate, captured on glutathione Sepharose 4B resin) MAAARATTPADGEEPAPEAEALAAARERSSRFLSGLELVKQGAEARVFRGRFQGRAAVIKHRFPKGYRHPALEARLGRRRTVQEARALLRCRRAGISAPVVFFVDYASNCLYMEEIEGSVTVRDYIQSTMETEKTPQGLSNLAKTIGQVLARMHDEDLIHGDLTTSNMLLKPPLEQLNIVLIDFGLSFISALPEDKGVDLYVLEKAFLSTHPNTETVFEAFLKSYSTSSKKARPVLKKLDEVRLRGRKREMVG", "binding result": "binds"}
{"BINDER": "GST-tagged PRPK K205A (enzyme, human, UniProt Q96S44 1-253, looked up, human p53-related protein kinase (PRPK, TP53RK) with K205A; source: E. coli BL21 lysate, captured on glutathione Sepharose 4B resin) MAAARATTPADGEEPAPEAEALAAARERSSRFLSGLELVKQGAEARVFRGRFQGRAAVIKHRFPKGYRHPALEARLGRRRTVQEARALLRCRRAGISAPVVFFVDYASNCLYMEEIEGSVTVRDYIQSTMETEKTPQGLSNLAKTIGQVLARMHDEDLIHGDLTTSNMLLKPPLEQLNIVLIDFGLSFISALPEDKGVDLYVLEAAFLSTHPNTETVFEAFLKSYSTSSKKARPVLKKLDEVRLRGRKRSMVG", "binding result": "binds"}
{"BINDER": "GST-tagged PRPK R80A (enzyme, human, UniProt Q96S44 1-253, looked up, human p53-related protein kinase (PRPK, TP53RK) with R80A; source: E. coli BL21 lysate, captured on glutathione Sepharose 4B resin) MAAARATTPADGEEPAPEAEALAAARERSSRFLSGLELVKQGAEARVFRGRFQGRAAVIKHRFPKGYRHPALEARLGRRATVQEARALLRCRRAGISAPVVFFVDYASNCLYMEEIEGSVTVRDYIQSTMETEKTPQGLSNLAKTIGQVLARMHDEDLIHGDLTTSNMLLKPPLEQLNIVLIDFGLSFISALPEDKGVDLYVLEKAFLSTHPNTETVFEAFLKSYSTSSKKARPVLKKLDEVRLRGRKRSMVG", "binding result": "binds"}
